# Tested on: OVCAR-5 ovarian
# experiment_notes: NCI tumour cell line growth inhibition, 48 h; in the data active means GI50 below about 0.43 µM; inactive means the rest
Respond using exactly one of the listed classes: YES (active), NO (inactive)

// query Lab log entry: O=C(NCCNC(=O)c1ccc(F)cc1)Nc1ccc(-n2cc(-c3ccncc3)c(-c3ccc(Cl)c(O)c3)n2)cc1 — outcome as called in the assay?
// result NO

// query Lab log entry: c1ccc2c(-c3cnn4cc(-c5ccc(N6CCNCC6)cc5)cnc34)ccnc2c1 — outcome as called in the assay?
// result NO

// query Lab log entry: CCOc1ccc(NC(=O)c2cc3ccccc3cc2O)cc1 — outcome as called in the assay?
// result NO

// query Lab log entry: Cc1ccc(NC(=O)N2CCCCC2)cc1[N+](=O)[O-] — outcome as called in the assay?
// result NO

// query Lab log entry: O=c1oc2c(cc1-c1ccccc1)C(O)Oc1ccccc1-2 (configuration not stated) — outcome as called in the assay?
// result NO

// query Lab log entry: N#CSCC1CC(O)(c2ccccc2)CC(c2ccc(Cl)cc2)O1 (configuration not stated) — outcome as called in the assay?
// result NO

// query Lab log entry: CNC12C3C4C1C1C2C3C41C(=O)N[C@H](C(=O)N(C)[C@H](C[C@@H](OC(C)=O)c1nc(C(=O)N[C@@H](Cc2ccccc2)C[C@H](C)C(=O)OC)cs1)C(C)C)C1CC1 (some centres not stated) — outcome as called in the assay?
// result NO

// query Lab log entry: COc1ccc(C2SCC(=O)N2NC(=O)C(O)c2ccccc2)cc1 (configuration not stated) — outcome as called in the assay?
// result NO

// query Lab log entry: C[CH2][Ge]([CH2]C)([CH2]C)[O]C(=O)C([O][Ge]([CH2]C)([CH2]C)[CH2]C)c1ccccc1 (configuration not stated) — outcome as called in the assay?
// result NO

// query Lab log entry: NC(=NCCO)c1ccc(N2CCCN(c3ccc(C(N)=NCCO)cc3)CC2)cc1 — outcome as called in the assay?
// result NO

// query Lab log entry: C=C(CN(C)Cc1ccccc1)c1ccc(C(=O)Nc2ccccc2N)cc1 — outcome as called in the assay?
// result NO

// query Lab log entry: O=C1Nc2ccc(CN3CCOC3=O)cc2/C1=C/c1cc(CN2CCOCC2)c[nH]1 — outcome as called in the assay?
// result NO

// query Lab log entry: CCOc1ccc2c(c1)C(=O)c1c-2n(CCCN)c(=O)c2cc([N+](=O)[O-])ccc12 — outcome as called in the assay?
// result YES

// query Lab log entry: O=C(O)c1cc2cc(O)ccc2[nH]1 — outcome as called in the assay?
// result NO

// query Lab log entry: Cn1ccc2c3c(=O)cc[nH]c3ccc21 — outcome as called in the assay?
// result NO

// query Lab log entry: CCOC(=O)Nc1ccc(C(=O)/C=C/c2ccccc2)cc1 — outcome as called in the assay?
// result NO

// query Lab log entry: Clc1ccc(-c2nc(C(Cl)Cl)nc3cc(-c4ccccc4)nn23)cc1 — outcome as called in the assay?
// result NO
